assay procedure: RPL19A-GFP modulators, yeast TOR pathway, confirmation, cell-based, S. cerevisiae, flow cytometry, cherry picks, mother/daughter gates (AID 2270)
recorded conditions: S. cerevisiae RPL19A-GFP strain, 3 h, measured here: mother cell gate, at 10 µM, stronger effect = lower value, 100 = same GFP as DMSO wells
attribute measured: GFP response vs DMSO (%)
Answer format: numeric, % implied, no suffix.

Take a look at these entries with their results.
# compound, attribute measured, unit text, val
records = [
    ("O=C(CNC(=O)c1ccncc1)N/N=C/c1cccc([N+](=O)[O-])c1", "GFP response vs DMSO", "%", 99.4),
    ("Cc1nc2ccc(Br)cn2c1C(=O)N/N=C\\c1ccccc1Cl", "GFP response vs DMSO", "%", 96.6),
    ("CCCCC(=O)NNC(=S)NC(=O)c1ccc(C)cc1", "GFP response vs DMSO", "%", 111),
    ("O=C1C2C3C=CC(CO)(O3)C2C(=O)N1c1ccccc1-c1ccccc1 (configuration not stated)", "GFP response vs DMSO", "%", 110),
    ("CCOCCCNC(=O)/C(C#N)=C/c1ccc([N+](=O)[O-])o1", "GFP response vs DMSO", "%", 87.9),
]

Given item COc1ccc(NC(=S)N2CCC(c3ccccc3)C2)cc1 (configuration not stated) , the value recorded as its GFP response vs DMSO is 98

Sample O=C(NC(=S)NNC(=O)c1cnccn1)c1ccc(F)cc1 ; GFP response vs DMSO observed: 105

====

assay procedure: inhibitors of fungal efflux pumps CDR1, CDR2, MDR1, pilot screen, validation compound set, multiplex, phenotypic (AID 588506);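 further: Nile Red retained in cells so higher fluorescence means more efflux inhibition; 0 = negative control wells and 1 = enniatin B 25 µM full block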
recorded conditions: S. cerevisiae pump-expressing triplex, Nile Red efflux flow cytometry; at 10 µM; the pumps come from Candida albicans
Activity calls are given as the source filed them.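 The calls were made as follows: active = efflux inhibition above 0.42, the validation set average plus 4 SD; inconclusive = no clear call, values can overlap the other calls; inactive = the rest.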
Answer with one of the outcomes active, inactive

Take a look at these entries with their results.
# smi, class
rows = [
    ("CN(C)c1nc(N(C)C)nc(N(C)C)n1", "active"),
    ("Cn1cc(CN(CCO)Cc2cccs2)c(-c2cccc(Cl)c2)n1", "inactive"),
]

Asked: Dear all, I need the recorded test outcome for COc1cc2c(cc1OC)C1(CCCCC1)CN(C)C2 , thank you.
Given back: inactive

====

Recorded GFP response, % of DMSO by entry
assay procedure: AGP1-GFP expression modulators, hit retest, confirmation, cell-based, flow cytometry, S. cerevisiae, cherry picks (AID 2273);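 further: median GFP channel fluorescence over the whole cell population gate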
recorded conditions: S. cerevisiae AGP1-GFP strain, 3 h, at 10 µM
Report as a plain number; the unit % is understood.

Before answering, review these 4 worked examples.
# compound, attribute measured, val
rows = [
    ("COCCCN1C(=O)C2C(C(=O)Nc3cc(C)cc(C)c3)C3C=CC2(O3)C1C(=O)NC1CCCCC1 (configuration not stated)", "GFP response, % of DMSO", 96.7),
    ("CCc1nnc(NC(=O)c2ccc(S(=O)(=O)N(CC)Cc3ccccc3)cc2)o1", "GFP response, % of DMSO", 101),
    ("COC(=O)c1ccc(NC(=O)c2nc(S(=O)(=O)Cc3cccc(C)c3)ncc2Cl)cc1", "GFP response, % of DMSO", 95.7),
    ("Cc1cc(C)nc(S/C=C/C(=O)c2ccccc2F)n1", "GFP response, % of DMSO", 94.3),
]

For this compound ( CNc1nc(-c2ccccc2)cc(C(F)(F)F)c1C#N ), measured GFP response, % of DMSO is 102

Memo: COc1ccc(/C=C2/C(=O)ON=C2c2ccccc2)cc1OC , reported GFP response, % of DMSO: 101

Short answer for Cn1c(N2CCCC2)nc2c1c(=O)n(Cc1ccc(Cl)cc1)c(=O)n2C : GFP response, % of DMSO was 98.4

The value of GFP response, % of DMSO measured for the compound Cn1cc(/C=C/c2cc[n+](C)cc2)c2cc(F)ccc21 turned out to be 103

# GFP response, % of DMSO (compound: CCCc1[nH]nc2c1C1(C(=O)N(CC)c3ccccc31)C(C#N)=C(N)O2 (configuration not stated) ) is 98.5

# compound O=C(OCn1ncc(Br)c(Br)c1=O)c1c(F)cccc1F ; its GFP response, % of DMSO = 116

Sample Cc1ccc(C(=O)N2c3ccccc3NC(=O)C2C)cc1 (configuration not stated) ; GFP response, % of DMSO observed: 100

# GFP response, % of DMSO of CCOc1ccc(C(=O)/C=C/c2ccccc2C(F)(F)F)cc1 = 99.1
